Tested on: P. aeruginosa
test.summary: Time-kill assay of GN lysin activity
Type: cell-based, Pseudomonas aeruginosa
settings: CAA/HuS; lysin 10 μg/mL; T = 0 7.8; buffer control 7.7
outcome.measure: Log10 CFU/mL T = l hr (Log10 CFU/mL)
Give bare numbers, in Log10 CFU/mL.

GN105: Native lysin, GenBank WP_016046696.1, SEQ ID NO: 25 (protein, listed as Pseudomonas aeruginosa) MAVVSEKTAGGRNVLAFLDMLAWSEGTSTIRGSDNGYNVVVGGGLFNGYADHPRLKVYLPRYKVYSTAAGRYQLLSRYWDAYRESLALKGGFTPSNQDLVALQQIKERRSLADIQAGRLADAVQKCSNIWASLPGAGYGQREHSLDDLTAHYLAAGGVLS; 7.0

QUERY: Write down Log10 CFU/mL T = l hr measured for item GN146: Modified GN4, amino acid substitutions (K99D, R115H), SEQ ID NO: 4 (protein) MRTSQRGIDLIKSFEGLRLSAYQDSVGVWTIGYGTTRGVTRYMTITVEQAERMLSNDIQRFEPELDRLAKVPLNQNQWDALMSFVYNLGAANLASSTLLDLLNKGDYQGAADQFPHWVNAGGKRLDGLVKRRAAERALFLEPLS
RESULT: 5.9

All figures here come from patent US20220160843A1.
